Where do the numbers come from? From paper PMC10397247.

Molecular target: T1, 4H967-bA
T1 chain: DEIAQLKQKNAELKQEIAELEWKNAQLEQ
Assay: two-hybrid library CCNG1;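 further: natural log of median RNA to DNA barcode read ratio; higher means stronger binding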
readout label: interaction score

DKIAQLKQEIAELKQKIAELKWENAQLEQ [4H2667-bA]    -1.08
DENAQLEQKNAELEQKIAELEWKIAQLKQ [4H1446-bA]    -0.635
DEIAQLEQKIAELKQKNAELEWEIAQLKQ [4H370-bA]    -0.217
DEIAQLKQKNAELEQENAELEWKIAQLKQ [4H918-bA]    -0.684
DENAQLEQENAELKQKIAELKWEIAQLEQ [4H1257-bA]    -1.12
DEIAQLKQENAELEQKIAELKWKNAQLEQ [4H687-bA]    1.07
DEIAQLKQEIAELEQKNAELEWKNAQLKQ [4H568-bA]    -0.986
DKIAQLKQENAELEQKIAELKWEIAQLEQ [4H2729-bA]    0.0132

1. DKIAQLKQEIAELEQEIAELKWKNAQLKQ [4H2576-bA]
2. DEIAQLKQENAELKQEIAELKWKIAQLEQ [4H717-bA]
Exercise: So which one has the bigger interaction score here, 1 or 2 ? Write the label of whichever entry you select.
Solution: 1
